test: soluble on expression in E. coli; label from the status in PepcDB or PDB records
Assay Readout: soluble on expression in E. coli

Before answering, review these 5 worked examples.
What value of measured soluble on expression in E. coli is listed for MGSDKIHHHHHHMIKLIATDIDGTLVKDGSLLIDPEYMSVIDRLIDKGIIFVVCSGRQFSSEFKLFAPIKHKLLYITDGGTVVRTPKEILKTYPMDEDIWKGMCRMVRDELPACDYFAATPDFCFAEDGGSPIFHLLRDSYGFEMREVDDITRLDRNDIIKFTVFHPDKCEELCTPVFIPAWNKKAHLAAAGKEWVDCNAKGVSKWTALSYLIDRFDLLPDEVCCFGDNLNDIEMLQNAGISYAVSNARQEVIAAAKHTCAPYWENGVLSVLKSFL ? not soluble

What value of measured soluble on expression in E. coli is listed for VARADESLQQVVMAYFGVQFKSEQKAIALKAMQHIVQSFSLDNGPQNHDITHHTDNQGYENYIVVGYWRDPGAYCRWFRSTEVSHWWDSDERLNDGIGYFREIVIPRADQFETLYAFKEDLPGVGAVMDDISDDIQEHGYWGSARERF ? not soluble

What value of measured soluble on expression in E. coli is listed for GERIDIRISPYLQDLFDAARADGVYPIVASGYRTTEKQQEIMDEKVAEYKAKGYTSAQAKAEAETWVAVPGTSEHQLGLAVDINADGIHSTGNEVYRWLDENSYRFGFIRRYPPDKTEITGVSNEPWHYRYVGIEAATKIYHQGLCLEEYLNTEK ? not soluble

What value of measured soluble on expression in E. coli is listed for MLSFTSRLKKDLFIKAQSLVPQHQLSRVVGKVAESENILIKAAVIQAFKTKYGIDLSIAEQADALKYKSFNEFFTRALKEGVRVVDSATGSIVSPADGAISQLGTIHDGEVFQAKGQSFSVEKLIGDPQLAQPFKQGQFATVYLSPRDYHRVHMPFTGTLTETLYIPGELFSVNQVTAENIPGLFARNERMVCLFDTELGRMAVVLVGAMIVAGIETVVTGKVKPTGRLELNHHDVTLQKGDELGRFYLGSTAIILFEKDKMVWDQQFKANSIVVMGEKLGQSTNPLEHHHHHH ? not soluble

What value of measured soluble on expression in E. coli is listed for MSLARQNYHDEVEAAVNKQINVELYASYVYLSMSAHFDRDDIALRNIAKFFKEQSDEERGHATELMRIQAVRGGRVAMQNIQKPEKDEWGTVLEAFEAALALERANNASLLKLHGIAEQRNDAHLTNYIQEKYLEEQVHSINEFARHIANIKRAGPGLGEYLFDKEEFSD ? not soluble

---
What value of measured soluble on expression in E. coli is listed for MSQYGFVRVPREVEKAIPVVNAPRPRAVVPPPNSETARLVREYAAKELTAPVLNHSLRVFQYSVAIIRDQFPAWDLDQEVLYVTCLLHDIATTDKNMRATKMSFEYYGGILSRELVFNATGGNQDYADAVTEAIIRHQDLTGTGYITTLGLILQIATTLDNVGSNTDLIHIDTVSAINEQFPRLHWLSCFATVVDTENSRKPWGHTSSLGDDFSKKVICNTFGYN ? not soluble

* * *

experiment: soluble on expression in E. coli; label from the status in PepcDB or PDB records
Assay Readout: soluble on expression in E. coli

Before answering, review these 5 worked examples.
What value of measured soluble on expression in E. coli is listed for MGSDKIHHHHHHMSPMTIPSEMKALLLVGDGYTKTPSGSALEAMEPYLEQGRIAVPAPGPSQVLIKVNLASINPSDVAFIKGQYGQPRVKGRPAGFEGVGTIVAGGDEPYAKSLVGKRVAFATGLSNWGSWAEYAVAEAAACIPLLDTVRDEDGAAMIVNPLTAIAMFDIVKQEGEKAFVMTAGASQLCKLIIGLAKEEGFRPIVTVRRDEQIALLKDIGAAHVLNEKAPDFEATLREVMKAEQPRIFLDAVTGPLASAIFNAMPKRARWIIYGRLDPDATVIREPGQLIFQHKHIEGFWLSEWMRQFKERRGPAILEAQKRFSDGRWSTDVTAVVPLAEAIAWVPAELTKPNGKVFIRP ? not soluble

What value of measured soluble on expression in E. coli is listed for MALPKPSDGTLPAEVQGRGQRRRLVWTPSQSKALQACFERNPYPGITTRERLAQAIGIPEPRVQILFQNERSCQLRQHWH ? soluble

What value of measured soluble on expression in E. coli is listed for HGTMEVPINRTYSCSKEGAESPKTPACQEAKRVGGTQAMYDWNGINQNPPGDNHQSVVPDGTLCGGGQAKFKGFNLARTDWPTTNIVPDAKGNFEFIYTATMPHATKYFKFYVTRNGWNPNQPLKWSDLEPFGTYNGNPPLDDKQRYHMTMKLPTGKTGRHIIYNVWKRSDSEEAFYSCSDVNFTN ? not soluble

What value of measured soluble on expression in E. coli is listed for GSGIIEFHVIGNSLTPKANRRVLLWLVGLQNVFSHQLPRMPKEYIARLVFDPKHKTLALIKDGRVIGGICFRMFPTQGFTEIVFCAVTSNEQVKGYGTHLMNHLKEYHIKHNILYFLTYADEYAIGYFKKQGFSKDIKVPKSRYLGYIKDYEGATLMECELNPRIPYT ? soluble

What value of measured soluble on expression in E. coli is listed for MSLKTTLPISLDWSTEEVIDVVHFFQAIEQAYDQGIAREDLLGKYRRFKEIVPSKSEEKQLFRAYEQENDVSCYQTIKKAREEMEEHIQMEGHHHHHH ? soluble

---
What value of measured soluble on expression in E. coli is listed for HYTSVPNIMKVIKPLFLDKLNQSFLDAYDDYTKLENLLTRIGKIKFFDPACGSGNFLIITYKELRRMEINIIKRLQELLGEYLYVPSVTLSQFYGIEIEDFAHDVAKLSLWIAEHQMNEELKNEVHNAVRPTLPLHTAGDIRCANAIRVEWTEVCPAQGSEEVYVFGNPPYLGSKKQNKEHKSDMLSIFGKVKNGKMLDYISAWFYFGAKYASTTNAKVAFVSTNSVTQGEQVSILWNELFKFGI ? not soluble

What value of measured soluble on expression in E. coli is listed for MSHQIRSKKTLWELVGRNKDALRDFLKEHRGTILLRDIASEHKVVYKPIFKRYNGDPDLIEDNSNDVEHWYDYHLERYWNTPELKKEFYKKFGPVDLNQPIILAKPLRQHNRGDLVHLLPQFVVPVYN ? soluble

What value of measured soluble on expression in E. coli is listed for MGNGDKVMSHWSFHIPRLHHHEHDHEKVPKGCLAVKVGQGEEQERFVIPVMYFNHPLFGQLLKEAEEEFGFAQKGTITIPCHVEEFRYVQGLIDRENTRFLGTNLLDHHHHHHNHLIRCFRV ? not soluble

* * *

assay: soluble on expression in E. coli; label from the status in PepcDB or PDB records
Assay Readout: soluble on expression in E. coli

Before answering, review these 5 worked examples.
What value of measured soluble on expression in E. coli is listed for GMAGAAHRLMEARMRRYDNKFARISDIDINQPESWRGRIFLTFDIDWAADFVLQDTIDLIEGAGVCATWFATHSTPLLENIRRNPLFELGVHPNFNPLLAGAHAEGVQEILDRTLELAPGCVSVRSHSLVQATSILNMFGERRLRYDCNILVPWDAGIVLQPWRHWTGDMVRVPYLWEDDVACLYDWEFDSTFDYWYQPDGINVLDFHPIHVYMNTESLRRYEDSREVHRNPVDLIRWRNTSAGSRTFLQSLLARNI ? soluble

What value of measured soluble on expression in E. coli is listed for MGSLVREWVGFQQFPAATQEKLIEFFGKLKQKDMNSMTVLVLGKGGVGKSSTVNSLIGEQVVRVSPFQAEGLRPVMVSRTMGGFTINIIDTPGLVEAGYVNHQALELIKGFLVNRTIDVLLYVDRLDVYAVDELDKQVVIAITQTFGKEIWCKTLLVLTHAQFSPPDELSYETFSSKRSDSLLKTIRAGSKMRKQEFEDSAIAVVYAENSGRCSKNDKDEKALPNGEAWIPNLVKAITDVATNQRKAIHVDAAALEHHHHHH ? soluble

What value of measured soluble on expression in E. coli is listed for MKFLFIVQGEGRGHLTQAITLEEILRRNGHEVVEVLVGKSSSRRLPGFFNRNIHAPVKRFVSPNFLPTPANKRVSLMRSVAYNLVKLPVYINSINYIRQRIEASGADRVINFYELLTGLTYFLFRPSVPQICIGHQYLFLHKSFEFPKADKVSLALLKFFTVLTSLGAKERLALSFRHMKDDPQNHIRVIPPLLRREVTLHEPYSGDYIHGYMVNAGFSENVMKWHRQHPGIPLRFFWDKWEEEPVKRVDNTLSFYQLDDVEFLRQMAGCKAYASTAGFESVCEAMYLGKPILMVPAHIEQDCNAYDAEKSGAGIISSDFNLQQLLEFAKDYHPNRDFVYWVRGAEYTLLNLLESDSSNYQQVLFNEMYLVEEFI ? not soluble

What value of measured soluble on expression in E. coli is listed for MLKKRELQDCHALYELMVHPDVFPFVRQKASSYEEFLFMTKQLMEAEERGELISRTILDEWGNPIGTISLFDIQDGAGFLGTWLGKPYHGLGYNRRAKEAFFHELFYELSIETVFLRIRKVNVRSIKAAEKLPYVTPANETRRALLEQIGADVYNLYEITKDNYTLYTMRHPSFAHNEEQRKEA ? not soluble

What value of measured soluble on expression in E. coli is listed for MARRNDHTREELVALTLDRVKQFLDTHSYHELSLRKVATMIGYVPSTLVNVFGNYNLLLLHVVAQTLDELAQEAQQAVKSTTYPKDALYQLAYCYHDFAKRNPYRWQLIFEHNMNGEMLPEWQAQRINNMTSMLEDLLKVIAPLRSEQEVLQASRVLWSGVHGITILSVDDKFFANEPIDGNALINNLLNHYLANW ? not soluble

Consider the additional sequence presented here.
What value of measured soluble on expression in E. coli is listed for MGSDKIHHHHHHMNKPLDKQLAELDIFSLLLFRAIFETGHANIAARQLDVSAPKVSRALASLRLIFADELFYRRQQGFRPTPLAEQIYPAIRELTDSINLLGMQLKDHQAFHRQECQVFDLAVSSGILTTLALEFNRREGLCPSVVLHHWQENTADRIHAGELDLGLALAPEPHTELSYERLCDAPGLCLVGAANHPIWQYTDICLEHICEYPFLCMNYPGFNDKVDPLELFCHREGLIPPTVLRVTDKEEWFGHLLCQHSLAFASPLEWGLLNALPGVEIKHLPAKEISRLHSGSAVPGLYLIEKPAHHRRYSPDDREKLLHIISLTLGLVTEDHPVNFSI ? not soluble
